test system: RARb homodimer (NR concentration 270 nM); assay: PBM binding z-score (relative to random genomic background probes); higher = stronger binding; sequences stand for … in GC…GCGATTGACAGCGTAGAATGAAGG
reportedMetric: PBM binding z-score
Just the number, please, no unit after it.

Q: Tell us which PBM binding z-score value is on record for "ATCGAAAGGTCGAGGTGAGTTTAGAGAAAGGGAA"
Result: 3.07

Q: Fill in PBM binding z-score for record "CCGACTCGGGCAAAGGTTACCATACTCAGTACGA"
Result: 2.04

Q: Read off the recorded PBM binding z-score for "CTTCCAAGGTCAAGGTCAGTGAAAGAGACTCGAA"
Result: 5.12

Q: Please give the documented PBM binding z-score of "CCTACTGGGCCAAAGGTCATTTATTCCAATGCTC"
Result: 4.42

Q: Note PBM binding z-score for the sequence shown: "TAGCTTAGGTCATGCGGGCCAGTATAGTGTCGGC"
Result: 3.21

Q: Give a short answer stating reported PBM binding z-score for "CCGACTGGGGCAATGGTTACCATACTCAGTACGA" .
Result: -0.241

====

tested on: LXRb:RXRa (NR concentration 270 nM, RXRa partner concentration 90 nM); test: PBM binding z-score (relative to random genomic background probes); higher = stronger binding; sequences stand for … in GC…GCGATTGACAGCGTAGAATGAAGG
reportedMetric: PBM binding z-score
Quick one: just the number, no unit, thanks!

Q: Provide PBM binding z-score value for the following sequence: "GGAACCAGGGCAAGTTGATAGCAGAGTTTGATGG"
Result: 0.866

Q: Consider the sequence "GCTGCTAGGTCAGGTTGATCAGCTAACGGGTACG" . State its measured PBM binding z-score.
Result: 0.353

Q: Report PBM binding z-score, nothing else, for this sequence: "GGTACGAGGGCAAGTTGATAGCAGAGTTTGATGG"
Result: 0.434

Q: Hello, please tell me recorded PBM binding z-score for this one: "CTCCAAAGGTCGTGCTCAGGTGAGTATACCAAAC"
Result: 3.67

Q: Identify the reported PBM binding z-score for the following entry. "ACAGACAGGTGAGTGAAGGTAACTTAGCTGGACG"
Result: -0.508

Q: Consider the sequence "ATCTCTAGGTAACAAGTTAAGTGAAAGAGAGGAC" . State its measured PBM binding z-score.
Result: 0.236

Q: Provide one value: measured PBM binding z-score of "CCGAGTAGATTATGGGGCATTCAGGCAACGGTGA"
Result: 0.275

Q: Answer with the recorded PBM binding z-score of "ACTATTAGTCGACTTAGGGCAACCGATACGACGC" only.
Result: -0.374

Q: Answer with the recorded PBM binding z-score of "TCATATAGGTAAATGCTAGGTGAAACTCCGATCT" only.
Result: 0.756

Q: Quote PBM binding z-score reported for "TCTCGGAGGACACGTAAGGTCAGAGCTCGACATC" please.
Result: 2.1

Q: Tell me its PBM binding z-score given "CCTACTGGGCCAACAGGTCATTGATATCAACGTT" as the entry.
Result: 1.98

Q: State its PBM binding z-score for this sequence: "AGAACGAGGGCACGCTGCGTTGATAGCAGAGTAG"
Result: -0.144

Q: Give recorded PBM binding z-score. "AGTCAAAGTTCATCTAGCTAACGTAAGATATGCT"
Result: 3.8

Q: Given "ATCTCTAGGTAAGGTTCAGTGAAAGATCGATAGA" , respond with its PBM binding z-score.
Result: 1.07

Q: Tell us which PBM binding z-score value is on record for "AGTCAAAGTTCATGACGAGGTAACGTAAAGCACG"
Result: 3.45

Q: Given the sequence "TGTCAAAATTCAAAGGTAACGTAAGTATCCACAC" , write its reported PBM binding z-score.
Result: 0.809

Q: Output PBM binding z-score of "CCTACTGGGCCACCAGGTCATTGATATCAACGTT"
Result: 1.56

Q: Tell me measured PBM binding z-score for "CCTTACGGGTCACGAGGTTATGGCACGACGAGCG" please.
Result: 3.8

Q: # return recorded PBM binding z-score for entry "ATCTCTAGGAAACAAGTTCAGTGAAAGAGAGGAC"
Result: 0.587

Q: Hello, please tell me recorded PBM binding z-score for this one: "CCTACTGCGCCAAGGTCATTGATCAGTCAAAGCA"
Result: 3.52

Q: Answer with reported PBM binding z-score of "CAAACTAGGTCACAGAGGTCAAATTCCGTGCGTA"
Result: 6.71
